Tested on: CAKI-1 renal
Assay: NCI tumour cell line growth inhibition, 48 h
Readout Type: TGI

Query "C[C@@]1(CCCCCCCCCCc2ccccc2)C[C@@]2(C)OC(=O)C[C@H]2OO1" on CAKI-1 renal; TGI returned: > 84.1 µM

Query "COc1ccccc1NC(=S)N=Nc1c(O)[nH]c2ccccc12" on CAKI-1 renal; TGI returned: > 100 µM

Query "COC(=O)c1c(O)ccc2c1c1cc3ccccc3cc1n2Cc1cc(OC)cc(OC)c1" on CAKI-1 renal; TGI returned: > 28.4 µM

###

This listing pairs compounds with measured TGI.
Test system: DU-145 prostate
Experiment: NCI tumour cell line growth inhibition, 48 h
Please reply with the bare figure in µM and do not write the unit itself.

CN1CCN(C(=O)[C@@]2(C)CC[C@]3(C)CC[C@]4(C)C(=CC[C@@H]5[C@@]6(C)CCC(=O)NC(C)(C)[C@@H]6CC[C@]54C)[C@@H]3C2)CC1: 12.1
O=C1CC(/C=C/c2ccco2)=C(O)C1=O: 32.5
O=C(CCBr)N1CCN(C(=O)CCBr)CC1: 496
O=C(c1ccccc1)N1CCN(C(=S)NC2CCCCC2)C1=S: 57.9

GET /value?item= O=C(CN1CCN(Cc2ccccc2Cl)CC1)NC1CC(=O)c2c(Br)sc(Br)c21 (stereo not given) &field=TGI returns 33.6

###

System: HOP-62 NSCLC
Assay: NCI tumour cell line growth inhibition, 48 h
This listing pairs compounds with measured TGI.

Worked examples, 2 compounds total:
O=c1[nH]c2ccccc2c(O)c1Cc1ccccc1: > 100 µM
[O-]/N=[N+](/[O-])C1CCCCC1=[N+]1CCOCC1 (stereo unspecified): > 100 µM

GET /value?item= "N#CCCN(CCC#N)c1ccc(/C=C(/NC(=O)c2cc([N+](=O)[O-])ccc2Cl)C(=O)NN)cc1" &field=TGI returns > 100 µM

GET /value?item= "Nc1nc(N)c(CCCCc2ccccc2)c(C=O)n1" &field=TGI returns > 100 µM

GET /value?item= C/C=C1/CN2CCC34c5ccccc5N(C)C23C2CC1C4(C(=O)OC)C(OC(C)=O)O2 (stereo unspecified) &field=TGI returns > 100 µM

GET /value?item= "Oc1c(CN2CCCC2)ccc2cccnc12" &field=TGI returns > 65.8 µM

###

This listing pairs compounds with measured TGI.
Tested on: UACC-62 melanoma
Assay: NCI tumour cell line growth inhibition, 48 h

Worked examples, 2 compounds total:
Cc1nnc(N)nc1/C=C\c1ccc(Cl)cc1Cl: > 100 µM
O=C1/C(=C/c2ccc(Cl)cc2)Oc2cc(O)ccc21: > 100 µM

GET /value?item= "N#CC(C#N)=CNCCN1CCN(C=C(C#N)C#N)CC1" &field=TGI returns > 100 µM

GET /value?item= "C[C@@H](N)COc1ccc(-c2cnc3ccc(N[C@H](C)c4cccc(F)c4)nn23)cc1" &field=TGI returns 4.74 µM

GET /value?item= "Cn1c(-c2ccc(-c3cc(-c4cccs4)c(-c4cccs4)n3C)cc2)cc(-c2cccs2)c1-c1cccs1" &field=TGI returns > 100 µM

GET /value?item= "N#CCCN(CCC#N)c1ccc(/C=C(/NC(=O)c2cc([N+](=O)[O-])ccc2Cl)C(=O)NN)cc1" &field=TGI returns > 100 µM

GET /value?item= "O=[N+]([O-])c1cc(-c2nc(=S)[nH][nH]2)ccc1O" &field=TGI returns > 100 µM

GET /value?item= COc1ccc2c(c1)N(Cc1ccc(Cl)cc1)CCC2N1CCCC1=O (stereo unspecified) &field=TGI returns 14.9 µM

GET /value?item= COc1ccc2c(c1)Oc1cc(O)ccc1[C@H]2c1ccccc1C(=O)NC(C)c1ccccc1 (stereo partly specified) &field=TGI returns 24.8 µM

GET /value?item= "Fc1cc(F)c(F)c(S)c1F" &field=TGI returns > 100 µM

GET /value?item= "CN1CC=C(c2cc(NC(=O)Nc3ccc(Oc4ccnc(NC(=O)C5CC5)c4)c(F)c3)cc(C(F)(F)F)c2)CC1" &field=TGI returns 2.25 µM

GET /value?item= "O=C(NC(=S)Nc1ccc([N+](=O)[O-])cc1)c1ccc2c(c1)Sc1ccccc1O2" &field=TGI returns > 100 µM
